- Measurement Target: topoisomerase IIα (Homo sapiens)
- Construct: purchased TopoGen
- Sequence (P11388 whole entry): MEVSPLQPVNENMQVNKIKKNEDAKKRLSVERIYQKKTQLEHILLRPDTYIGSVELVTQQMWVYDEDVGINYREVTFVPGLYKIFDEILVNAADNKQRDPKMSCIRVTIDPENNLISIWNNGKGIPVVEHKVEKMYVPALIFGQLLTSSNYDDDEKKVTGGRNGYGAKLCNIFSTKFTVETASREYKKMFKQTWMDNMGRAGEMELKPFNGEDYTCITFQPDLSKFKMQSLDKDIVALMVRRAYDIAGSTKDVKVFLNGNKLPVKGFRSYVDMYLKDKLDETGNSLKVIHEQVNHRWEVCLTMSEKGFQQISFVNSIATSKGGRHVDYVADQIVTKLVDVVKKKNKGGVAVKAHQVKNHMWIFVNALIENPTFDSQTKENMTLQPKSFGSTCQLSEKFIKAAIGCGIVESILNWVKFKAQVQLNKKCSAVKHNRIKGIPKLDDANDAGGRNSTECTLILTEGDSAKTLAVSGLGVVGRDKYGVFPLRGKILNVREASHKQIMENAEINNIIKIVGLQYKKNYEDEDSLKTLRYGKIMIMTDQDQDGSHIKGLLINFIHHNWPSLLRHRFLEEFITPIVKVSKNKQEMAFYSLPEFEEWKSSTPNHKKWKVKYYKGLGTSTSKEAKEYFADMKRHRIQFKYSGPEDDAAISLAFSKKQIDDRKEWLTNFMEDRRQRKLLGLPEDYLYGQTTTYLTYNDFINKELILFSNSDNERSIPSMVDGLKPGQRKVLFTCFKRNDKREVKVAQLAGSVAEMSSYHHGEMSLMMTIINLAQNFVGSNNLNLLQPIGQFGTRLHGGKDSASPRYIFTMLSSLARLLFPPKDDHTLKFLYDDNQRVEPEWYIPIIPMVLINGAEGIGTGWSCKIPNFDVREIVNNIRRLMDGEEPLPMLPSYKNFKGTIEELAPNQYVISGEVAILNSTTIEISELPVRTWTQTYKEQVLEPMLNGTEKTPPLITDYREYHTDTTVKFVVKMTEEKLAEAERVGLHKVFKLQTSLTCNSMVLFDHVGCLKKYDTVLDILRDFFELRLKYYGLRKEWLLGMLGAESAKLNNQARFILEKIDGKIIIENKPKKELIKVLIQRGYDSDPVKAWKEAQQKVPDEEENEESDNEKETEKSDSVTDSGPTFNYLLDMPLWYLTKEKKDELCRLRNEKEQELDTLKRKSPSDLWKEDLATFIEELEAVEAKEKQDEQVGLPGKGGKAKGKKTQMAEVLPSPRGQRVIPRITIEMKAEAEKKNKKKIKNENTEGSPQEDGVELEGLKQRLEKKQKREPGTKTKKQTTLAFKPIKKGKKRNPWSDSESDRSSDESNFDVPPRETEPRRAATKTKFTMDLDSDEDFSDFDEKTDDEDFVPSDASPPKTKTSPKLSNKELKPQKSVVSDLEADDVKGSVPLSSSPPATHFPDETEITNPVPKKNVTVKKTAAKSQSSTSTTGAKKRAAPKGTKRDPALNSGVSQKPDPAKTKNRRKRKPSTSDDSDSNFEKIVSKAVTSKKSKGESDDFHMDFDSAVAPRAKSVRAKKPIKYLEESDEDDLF
- Experiment Notes: Topoisomerase IIα drug detection kit, kDNA agarose gel
- Format: biochemical
- Measurement Setup: normalized with 1% DMSO
Measured Endpoint: inhibition at 10 µM (%)

Compound | Measurement Target | Unit Of Measure | Reported Measurement
CCCCCC(/C=C/[C@H]1CC[C@H](O)[C@@H]1C/C=C\CCCC(=O)OC)OC(C)=O (stereo partly drawn) | topoisomerase IIα (Homo sapiens) | % | 26
CCCCC[C@@H](O)/C=C/[C@H]1CCC(O)[C@@H]1C/C=C\CCCCO (stereo partly drawn) [Compound 5, (5Z,13E)-1,9,15-triol-prosta-5,13-diene] | topoisomerase IIα (Homo sapiens) | % | 24
CCCCCC(O)/C=C/[C@H]1C=CC(=O)[C@@H]1C/C=C\CCCC(=O)O (stereo partly drawn) | topoisomerase IIα (Homo sapiens) | % | 64
CCCCCC(/C=C/[C@H]1CC[C@@H](O)[C@@H]1C/C=C\CCCC(=O)OC)OC(C)=O (stereo partly drawn) | topoisomerase IIα (Homo sapiens) | % | 43

P = CCCCCC(/C=C/[C@H]1C=CC(=O)[C@@H]1C/C=C\CCCC(=O)OC)OC(C)=O (stereo partly drawn)
Q = COc1cccc2c1C(=O)c1c(O)c3c(c(O)c1C2=O)C[C@@](O)(C(=O)CO)C[C@@H]3O[C@H]1C[C@H](N)[C@H](O)[C@H](C)O1 [doxorubicin, reference compound]
Parameter metric = inhibition at 10 µM. Return the lower-valued option from P and Q . The response must carry the label of the picked entry.
P
(P: 45%, Q: 88%)
